# Experimental target: Src kinase (Homo sapiens, UniProt P12931)
# Sequence (P12931 254-536): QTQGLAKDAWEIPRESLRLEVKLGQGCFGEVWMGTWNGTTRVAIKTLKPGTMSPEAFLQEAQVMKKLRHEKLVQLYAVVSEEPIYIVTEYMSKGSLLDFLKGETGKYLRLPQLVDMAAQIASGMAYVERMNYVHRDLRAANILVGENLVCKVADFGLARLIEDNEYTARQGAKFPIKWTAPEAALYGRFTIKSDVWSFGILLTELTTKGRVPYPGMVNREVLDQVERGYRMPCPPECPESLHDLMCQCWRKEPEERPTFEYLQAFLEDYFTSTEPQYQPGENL
Readout: IC50 (nM)
The figure you give is taken to be in nM; do not add the unit.

Observed IC50 on Src kinase (Homo sapiens, UniProt P12931), entry `C=CC(=O)Nc1ccccc1Nc1nc(Nc2ccc(N3CCN(C)CC3)cc2)ncc1Cl` , equals 26.6
